B1: library; numbered along this chain (parent)
chain: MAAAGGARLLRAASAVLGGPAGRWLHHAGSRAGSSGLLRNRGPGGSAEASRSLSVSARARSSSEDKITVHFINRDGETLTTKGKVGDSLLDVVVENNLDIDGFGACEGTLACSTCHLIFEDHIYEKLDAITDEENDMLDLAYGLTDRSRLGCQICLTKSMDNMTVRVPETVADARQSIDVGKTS

Variants of: B1
Test name: scaled log2 fold change in cell abundance, elesclomol vs control (0 = silent mean, 1 = nonsense mean) (scaled log2 ratio); higher = higher viability under elesclomol (loss of FDX1 cuproptosis function);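 note: variant abundance is its share of total variant reads in each endpoint sample, from next-generation sequencing of the integrated ORF PCR-amplified out of genomic DNA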
Run conditions: with ABC1 FDX1 KO; elesclomol 5 nM; glucose 10 mM; 14 days
Entries and their scaled log2 fold change values follow.
The answer should be written as a number, with no unit following it.

Here's what some known entries look like.
Mutation descriptor	Result
G33V	0.127
V94E	0.00926

Now take the following variant into account.
Input line: Name the recorded scaled log2 fold change for `S148I` .
Output line: 0.277
